Data origin: patent US20250011363A1

biological target: acetylcholine receptor; experiment: SPR, AchR immobilised on chip, peptide 10 uM
Lab note: anything with Binding affinity (RU) at or over 30 RU counts as 1 (yes); the rest go in 0 (no).

Before answering, review these 8 worked examples.
KFSMK [5mer-1132] ... 0 (no)
KFHGR [5mer-801] ... 0 (no)
KCDGK [5mer-1131] ... 0 (no)
KAEHK [5mer-1111] ... 0 (no)
KRVLQR [6mer-1-217] ... 1 (yes)
RMDAR [5mer-1118] ... 0 (no)
KEPEK [5mer-1115] ... 0 (no)
KKGQQK [6mer-1-238] ... 1 (yes)

Answer whether Binding affinity (RU) of RKGVSR [6mer-1-249] is greater than or equal to 30 RU. 1 (yes)

I'd appreciate it if you could say whether RNEFK [5mer-1140] has Binding affinity (RU) at least equal to 30 RU. 0 (no)

Determine whether this binder has Binding affinity (RU) no lower than 30 RU: RNTIR [5mer-804] 0 (no)

Check this binder for Binding affinity (RU) at or above 30 RU: RHKDR [5mer-817] 0 (no)

I'd appreciate it if you could say whether RRSYCK [6mer-1-214] has Binding affinity (RU) at least equal to 30 RU. 1 (yes)

Could you verify whether the entry REWNR [5mer-836] shows Binding affinity (RU) of no less than 30 RU? 0 (no)
